Data provenance is patent US20250145695A1.

- ASSAYED SYSTEM: T1, soluble TDP-43 (human, UniProt Q13148 1-414)
- T1 construct: also called soluble full-length TDP-43; FL TDP-43
- T1 sequence (Q13148 whole entry): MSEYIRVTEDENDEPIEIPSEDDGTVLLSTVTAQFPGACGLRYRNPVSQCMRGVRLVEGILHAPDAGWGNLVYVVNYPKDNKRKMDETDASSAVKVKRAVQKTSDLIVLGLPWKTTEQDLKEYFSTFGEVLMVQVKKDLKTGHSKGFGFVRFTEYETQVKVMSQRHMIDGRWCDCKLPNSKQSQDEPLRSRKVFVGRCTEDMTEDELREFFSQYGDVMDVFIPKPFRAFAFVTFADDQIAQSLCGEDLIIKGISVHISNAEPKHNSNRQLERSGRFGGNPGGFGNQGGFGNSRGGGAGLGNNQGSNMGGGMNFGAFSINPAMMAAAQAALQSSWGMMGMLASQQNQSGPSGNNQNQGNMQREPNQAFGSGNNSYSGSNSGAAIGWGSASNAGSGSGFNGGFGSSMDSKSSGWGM
- MEASUREMENT PROTOCOL: SPR Biacore 8K, soluble TDP-43 immobilized on CM5, mAb injected, single-cycle kinetics
I'd be grateful if you could share measured pKd for these entries.
Give bare numbers, as −log10 of the molar value.

Study these solved cases before continuing.
Name the recorded pKd for hACI-7069-633B12-Ab1_H32L26 (antibody, V domains shown) VH: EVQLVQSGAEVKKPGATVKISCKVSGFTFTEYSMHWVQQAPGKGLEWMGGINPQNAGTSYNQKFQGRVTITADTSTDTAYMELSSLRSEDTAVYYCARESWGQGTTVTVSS VL: DIVMTQSPLSLPVTPGEPASISCKSSQSLLHSDAKTYLNWLLQKPGQSPQRLIYLVSKLDSRVPDRFSGSGSGTDFTLKISRVEAEDVGVYYCFQGTHFPHTFGQGTKLEIK .
9.25

Param item = hACI-7069-633B12-Ab1_H28L24 (antibody, V domains shown) VH: EVQLVQSGAEVKKPGATVKISCKVSGFTFTEYSMHWVQQAPGKGLEWMGGINPNNGGTSYNQKFKGRVTITADTSTDTAYMELSSLRSEDTAVYYCARESWGQGTTVTVSS VL: DIVMTQSPLSLPVTPGEPASISCKSSQSLLHSDGKTYLNWLLQKPGQSPQRLIYLVSKLDSRVPDRFSGSGSGTDFTLKISRVEAEDVGVYYCWQGTHFPHTFGQGTKLEIK ; retrieve measured pKd.
9.27

Suppose we examine the binder hACI-7069-633B12-Ab1_H28L22 (antibody, V domains shown) VH: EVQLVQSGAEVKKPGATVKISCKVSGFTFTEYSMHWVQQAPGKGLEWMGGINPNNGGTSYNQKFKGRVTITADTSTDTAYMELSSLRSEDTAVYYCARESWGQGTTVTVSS VL: DIVMTQSPLSLPVTPGEPASISCKSSQSLLHSDGKTYLNWLLQKPGQSPKRLIYLVSKLDSRVPDRFSGSGSGTDFTLKISRVEAEDVGVYYCWQGTHFPHTFGQGTKLEIK ; what pKd value has been reported?
8.94

New cases:
GET /values?readout=pKd&item= hACI-7069-633B12-Ab1_H32L24 (antibody, V domains shown) VH: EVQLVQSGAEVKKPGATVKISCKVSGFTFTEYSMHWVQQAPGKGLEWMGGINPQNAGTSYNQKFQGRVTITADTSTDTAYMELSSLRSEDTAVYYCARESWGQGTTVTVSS VL: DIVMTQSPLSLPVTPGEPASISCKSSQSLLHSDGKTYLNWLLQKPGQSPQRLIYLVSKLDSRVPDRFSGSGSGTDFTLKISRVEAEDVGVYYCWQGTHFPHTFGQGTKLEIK
9.15
